target: T1, membrane-bound B Lymphocyte Stimulator on U937 plasma membrane preparations (human, UniProt Q9Y275 1-285); test: phage ELISA
T1 construct: Natural protein in plasma membrane fractions of the human cell line U937 coated on ELISA plates; also called U937 plasma membranes; U937 membranes
T1 sequence (Q9Y275 whole entry): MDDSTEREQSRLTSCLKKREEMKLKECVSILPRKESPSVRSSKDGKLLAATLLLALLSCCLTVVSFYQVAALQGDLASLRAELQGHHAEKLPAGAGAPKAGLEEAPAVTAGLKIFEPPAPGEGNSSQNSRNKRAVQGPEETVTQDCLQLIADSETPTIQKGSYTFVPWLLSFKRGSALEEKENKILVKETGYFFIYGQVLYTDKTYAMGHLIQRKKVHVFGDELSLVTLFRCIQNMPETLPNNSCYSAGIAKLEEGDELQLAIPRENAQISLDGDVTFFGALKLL
measurement-type: binding result

[[record]]
binder = "I018C10 (scFv) scFv: GVQLVQSGPEVKKPGASVKVSCTASGYTFTSYGVSWVRQAPGQGLEWIGWISAHNGQTKYAEKFQGRVTMTRNTSISTAYMELSSLRSEDTVVYYCARDGSYDILTGYYIDNYMDVWGKGTMVTVSSGGGGSGGGGSGGGGSSELTQDPAVSVALGQTVRITCQGDSLRSYYTNWFQQKPGQAPLLVVYAKNKRPSGIPDRFSGSSSGNTASLTITGAQAEDEADYYCHSRDSSGNHVLFGGGTKLTVLG"
result = "binds"

[[record]]
binder = "I029F11 (scFv) scFv: QVQLVQSRAEVKRPGASVKVSCKASGYRFGSYGITWVRQAPGQGLEWMGWISTRYGDTKSAQKVEGRVTLTTDTSTSTAYMELRSLRSDDTAVYYCARDGSYDILTGYYIDNYMDVWGRGTLVTVSSGGGGSGGGGSGGGGSQSVLTQPPSASGTPGQRVTISCSGSSSNIGSNTVNWYQRLPGAAPQLLIYNNDQRPSGIPDRFSGSKSGTSGSLVISGLQSEDEADYYCASWDDSLNGRVFGGGTKLTVLG"
result = "binds"

[[record]]
binder = "I031G11 (scFv) scFv: QVQLVQSGAEVKKPGASVKVSCTVSGDSFSRHGISWVRQAPGQGLEWMGWISVYNGDTKYAQKVQGRVTMTTDTSTNTVYMELRRLRSDDTAVYYCARDEGRDLLTGYYWPNFFDSWGRGTLVTVSSGGGGSGGGGSGGGGSALSYVLTQPPSVSGTPGQKVTISCSGSRPNIGGNTVNWYQQLPGAAPKLLIYSNSQRPSGVPDRFSGSKYGTSASLAISGLQSDDEADYYCAAWDDSLTGPVFGGGTKLTVLG"
result = "binds"

